The values you see were collected from paper PMC12564498.

target: human cannabinoid CB1 receptor (Homo sapiens); construct: purchased Perkin Elmer Inc., Singapore Pte; Ltd. RBHCB1M400UA; host or cells: HEK293-EBNA cell membranes (overexpressing); assay: biochemical; format: binding; conditions: [3H]CP-55940 0.5 nM, hCB1 HEK293-EBNA membranes, mean ± SEM n = 3; read-out: CB1 IC50
Sequence (P21554 whole entry): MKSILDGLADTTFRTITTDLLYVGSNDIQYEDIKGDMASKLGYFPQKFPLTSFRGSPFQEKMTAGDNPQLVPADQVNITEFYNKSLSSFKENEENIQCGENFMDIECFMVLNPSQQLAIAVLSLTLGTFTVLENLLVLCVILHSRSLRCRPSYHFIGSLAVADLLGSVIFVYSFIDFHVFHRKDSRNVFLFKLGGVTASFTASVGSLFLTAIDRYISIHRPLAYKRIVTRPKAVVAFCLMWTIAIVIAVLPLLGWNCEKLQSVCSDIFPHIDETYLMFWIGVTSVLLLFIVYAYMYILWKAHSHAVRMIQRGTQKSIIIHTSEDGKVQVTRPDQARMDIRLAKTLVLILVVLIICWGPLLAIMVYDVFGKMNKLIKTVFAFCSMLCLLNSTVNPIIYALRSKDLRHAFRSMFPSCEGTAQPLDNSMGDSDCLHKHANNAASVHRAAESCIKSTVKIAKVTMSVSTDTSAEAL
pIC50: −log10 of the molar value.
Readout type: pIC50

// below: answered compounds
COc1cccc(-c2nc3cc(Cl)ccc3n2C(=O)c2cccc3ccccc23)c1 [Compound 4b]    < 5.00
O=C(c1cccc2ccccc12)n1c(-c2ccco2)nc2cc(Cl)ccc21 [Compound 4f]    < 5.00
COc1cccc(-c2nc3cc(F)ccc3n2C(=O)c2cccc3ccccc23)c1 [Compound 5b]    5.21
O=C(c1cccc2ccccc12)n1c(-c2cccnc2)nc2ccc(F)cc21 [5a′]    < 5.00
COc1cccc(-c2nc3ccc(F)cc3n2C(=O)c2cccc3ccccc23)c1 [5b′]    < 5.00
Cc1ccc(-c2nc3cc(Cl)ccc3n2C(=O)c2cccc3ccccc23)o1 [Compound 4e]    < 5.00
Cc1cc(-c2nc3cc(F)ccc3n2C(=O)c2cccc3ccccc23)no1 [Compound 5c]    < 5.00
O=C(c1cccc2ccccc12)n1c(-c2ccon2)nc2cc(Cl)ccc21 [Compound 4d]    5.12

For the next question, use this compound.
State its pIC50 on human cannabinoid CB1 receptor (Homo sapiens): O=C(c1cccc2ccccc12)n1c(-c2ccon2)nc2cc(F)ccc21 [Compound 5d]
< 5.00
